Values from the Human Domainome abundance scans (Beltran et al. 2025)

Consider the following variants; for each one, report its abundance fitness.
B1: POU domain, class 3, transcription factor 4, residues 280 to 335; numbered along this chain, P49335 (parent)
chain: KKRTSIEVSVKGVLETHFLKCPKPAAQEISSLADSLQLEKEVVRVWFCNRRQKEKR

- Variants of: B1
- PROTOCOL_DETAILS: abundance fitness (aPCA) (normalised: wild type 0, dead -1); higher = more abundant; growth selection in yeast, the domain comes from the species named
- APPLIED_CONDITIONS: Homo sapiens
One number for each entry.

INSERT INTO results (residue_change, test_value) VALUES
  ('A26L', -0.07),
  ('K40I', -0.638),
  ('I6D', -0.249);

Parameters: items (list). Returns: abundance fitness for each item.
1. E7S
2. V45L
3. E7I
4. S9N
5. S5M
6. T16I
7. V42N
8. D34H

Found:
[0.528, 0.052, -0.357, 0.52, 0.289, -0.428, -0.799, 0.069]

Parameters: items (list). Returns: abundance fitness for each item.
1. V42S
2. S35V
3. L19Y

Found:
1. -0.431
2. -0.456
3. -0.518

Parameters: items (list). Returns: abundance fitness for each item.
1. L14C
2. F47L
3. A25V

Found:
-0.563
-0.868
-0.476
